For each record, write down the corresponding IC50.
target under test: human PDE1B enzyme (Homo sapiens (Human), UniProt Q01064)
assay comment: IMAP TR-FRET PDE1B enzymatic assay
Assay type: biochemical
assay setup: negative log of half-maximal molar inhibitory concentration; 200 nM FAM-cAMP; values given as bins; read-out: PDE1b (pIC50) (converted)

[Q] Look up IC50: "Cc1oc2ncnc(NC3(C)CC3)c2c1C(=O)NC1CCN(c2ccccn2)CC1"
[A] 10 to 100 nM

[Q] Look up IC50: "COc1ccc(-c2cnn(C(=O)c3c(C)oc4ncnc(NC5(C)CC5)c34)c2)cc1"
[A] 100 to 1000 nM

[Q] Look up IC50: "Cc1oc2ncnc(NC3(C)CC3)c2c1C(=O)NCCc1ccco1"
[A] 10 to 100 nM

[Q] Look up IC50: "Cc1oc2ncnc(NC3(C)CC3)c2c1C(=O)Nc1ccc2c(cnn2C)c1"
[A] 10 to 100 nM

[Q] Look up IC50: "Cc1oc2ncnc(NC3(C)CC3)c2c1C(=O)N(C)Cc1cc(C2CC2)[nH]n1"
[A] 10 to 100 nM

[Q] Look up IC50: "Cc1oc2ncnc(NC3(C)CC3)c2c1C(=O)N1CC2CC(C1)c1ccccc12"
[A] 100 to 1000 nM

[Q] Look up IC50: "Cc1oc2ncnc(NC3(C)CC3)c2c1C(=O)NCCc1cnc(C2CC2)nc1"
[A] 100 to 1000 nM

[Q] Look up IC50: "Cc1oc2ncnc(NC3(C)CC3)c2c1C(=O)N1CCn2c(C3CC3)nc(I)c2C1"
[A] 10 to 100 nM

[Q] Look up IC50: "Cc1oc2ncnc(NC3(C)CC3)c2c1C(=O)N1CCc2nc(F)ncc2C1"
[A] 100 to 1000 nM

[Q] Look up IC50: "Cc1ncc(CNC(=O)c2c(C)oc3ncnc(NC4(C)CC4)c23)cn1"
[A] 10 to 100 nM

[Q] Look up IC50: Cc1oc2ncnc(NC3(C)CC3)c2c1C(=O)N1C[C@@H]2C(c3ccccn3)[C@@H]2C1 (stereo partly drawn)
[A] 10 to 100 nM

[Q] Look up IC50: "Cc1oc2ncnc(NC3(C)CC3)c2c1C(=O)NCCc1ccccc1"
[A] 10 to 100 nM

[Q] Look up IC50: "Cc1csc(NC(=O)c2c(C)oc3ncnc(NC4(C)CC4)c23)n1"
[A] 10 to 100 nM

[Q] Look up IC50: "Cc1oc2ncnc(NC3(C)CC3)c2c1C(=O)N1CCc2c(ncnc2C2CC2)C1"
[A] 10 to 100 nM

[Q] Look up IC50: "Cc1oc2ncnc(NC3(C)CC3)c2c1C(=O)NCc1cncn1C"
[A] 100 to 1000 nM

[Q] Look up IC50: "Cc1cc(CNC(=O)c2c(C)oc3ncnc(NC4(C)CC4)c23)no1"
[A] 10 to 100 nM

[Q] Look up IC50: "Cc1oc2ncnc(NC3(C)CC3)c2c1C(=O)N1CC(c2nccs2)C1"
[A] 10 to 100 nM

[Q] Look up IC50: "Cc1oc2ncnc(NC3(C)CC3)c2c1C(=O)N1CCc2ccc(Cl)nc2C1"
[A] 10 to 100 nM
